Target: T1, human CCR8 (chemokine (C-C motif) receptor 8) (human, UniProt P51685 1-355)
T1 construct: whole, on cells; also called CCR8-CHO-K1 cells; CHOK1-CCR8 cells
T1 sequence (P51685 whole entry): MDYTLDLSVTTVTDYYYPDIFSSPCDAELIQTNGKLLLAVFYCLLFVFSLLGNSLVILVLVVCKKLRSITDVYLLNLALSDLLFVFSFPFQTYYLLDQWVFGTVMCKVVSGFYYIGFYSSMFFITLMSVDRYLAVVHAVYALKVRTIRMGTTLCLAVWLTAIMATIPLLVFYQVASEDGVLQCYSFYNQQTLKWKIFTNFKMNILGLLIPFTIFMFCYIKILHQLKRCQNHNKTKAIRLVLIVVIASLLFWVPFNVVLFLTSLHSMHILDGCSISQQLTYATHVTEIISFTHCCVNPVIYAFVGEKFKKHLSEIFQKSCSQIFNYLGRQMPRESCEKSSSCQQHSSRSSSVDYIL
Assay: flow cytometry on CHOK1-CCR8 cells, steps of Example 6
metric: binding result

binder	metric	recorded.measurement
Hu-15-Z8 (antibody, V domains shown, Humanized from CH-15; also called humanized antibody Hu-15-Z8) VH: EVQLVESGGGLVQPGGSLRLSCAASGFTFNTNAMNWVRQAPGKGLEWVGRIRTKSNNYATYYAESVRDRFTISRDDSKNSLYLQMNSLKTEDTAMYYCVRGGYGIRGDYTMDYWGQGTLVTVSS VL: DIVMTQSPPTLSLSPGERATLSCRSSKSLLHSNANTYLYWFQQKPGQSPQLLIYRMSNLASGIPDRFSGSGSGTDFTLTISRLEPEDFAVYYCMQHLEYPFTFGQGTKLEIK	binding result	binds
Hu-2-Z12 (antibody, V domains shown, Humanized from CH-2; also called humanized antibody Hu-2-Z12) VH: QVQLVQSGAEVKKPGASVKVSCKASGYTFTDYEMHWVRQAPVRGLEWMGAIDPETGATAYNQKFKGRVTLTADTSISTAYMELSRLRSDDTVVYYCKSRAGGRGRFAYWGQGTLVTVSS VL: DVVMTQSPLTLSLSPGERATLSCRSSQSLVHSSGNTYLHWYQQKPGQSPKLLIYKVSNRFSGIPDRFSGSGSGTDFTLTISRLEPEDFAVYFCSQTTHVPYTFGGGTKLELK	binding result	binds
Hu-15-Z9 (antibody, V domains shown, Humanized from CH-15; also called humanized antibody Hu-15-Z9) VH: EVQLVESGGGLVQPGGSLRLSCAASGFTFNTNAMNWVRQAPGKGLEWVGRIRTKSNNYATYYAESVRDRFTISRDDSKNSLYLQMNSLKTEDTAMYYCVRGGYGIRGEYTMDYWGQGTLVTVSS VL: DIVMTQSPPTLSLSPGERATLSCRSSKSLLHSNGNTYLYWFQQKPGQSPQLLIYRMSNLASGIPDRFSGSGSGTDFTLTISRLEPEDFAVYYCMQHLEYPFTFGQGTKLEIK	binding result	binds
